Every entry's value here was drawn from paper PMC5388414.

- tested-on: UniProt:P53131
- assay-procedure: ITC
- Type: binding
pKd: −log10 of the molar value.
experimental-readout: pKd

Req: Recorded pKd for Nc1ccn([C@@H]2O[C@H](COP(=O)(O)OP(=O)(O)O)[C@@H](O)[C@H]2O)c(=O)n1 [CDP] , please?
Resp: < 4.60
